test system: Mycobacterium tuberculosis; assay: Antimycobacterial activity against Mycobacterium tuberculosis H37Rv assessed as growth inhibition by Alamar Blue staining-based broth microdilution assay; type: functional; conditions: Mycobacterium tuberculosis, H37Rv
Overview of reported log10 of MIC across a group of molecules:
recorded-metric: log10 of MIC (log10 of the value in µg/mL)

>>> reported_value("COc1ccc2cc(C(=O)CN3CCN(c4c(F)cc5c(=O)c(C(=O)O)cn(C6CC6)c5c4OC)CC3)c(=O)oc2c1")
-0.60
>>> reported_value("Cc1cc(=O)oc2cc(OCc3cn(Cc4cc(=O)oc5ccc(Cl)cc45)nn3)ccc12")
0.80
>>> reported_value("COc1cc2ccc(=O)oc2cc1O")
1.62
>>> reported_value("C=CC(C)(C)c1c2c(c(OC)c3ccc(=O)oc13)C=CC(C)(C)O2")
1.70
>>> reported_value("O=C(c1ccncc1)n1nc(-c2ccc(F)cc2)cc1-c1cc2ccccc2oc1=O")
-0.20
>>> reported_value("O=C(N/N=C/c1ccc([N+](=O)[O-])cc1)c1cc2ccccc2oc1=O")
2.00
>>> reported_value("COc1ccc(-c2cc(-c3ccc(Nc4cc(=O)oc5ccccc45)cc3)nc(N)c2C#N)cc1OC")
1.10
>>> reported_value("Cc1ccc(O)c(C(=O)c2ccc(-c3cc4ccccc4oc3=O)nc2)c1")
2.00
>>> reported_value("Cc1ccc(O)c(C(=O)c2ccc(-c3cc4cc(Br)ccc4oc3=O)nc2)c1")
2.00
>>> reported_value("COc1cc2oc(=O)ccc2cc1[C@H]1OC(=O)[C@]2(C)O[C@H]12")
1.70
>>> reported_value("COc1cccc2cc(-c3ccc(C(=O)c4cc(C)ccc4O)cn3)c(=O)oc12")
1.80
>>> reported_value("O=C(N/N=C/c1cccc(O)c1)c1cc2ccccc2oc1=O")
1.70
>>> reported_value("O=c1ccc2c(O)c3ccoc3cc2o1")
2.00
>>> reported_value("COc1ccc2ccc(=O)oc2c1C(CO)=C(C)C")
1.70
>>> reported_value("O=C(CSc1nnc(-c2cc3ccccc3oc2=O)o1)Nc1ccc(I)cc1")
1.10
>>> reported_value("C=CC(C)(C)c1c2c(c(O)c3ccc(=O)oc13)C(=O)CC(C)(C)O2")
2.30
>>> reported_value("Cc1cc(=O)oc2cc(OCc3cn(Cc4cc(=O)oc5ccc6ccccc6c45)nn3)ccc12")
0.80
>>> reported_value("Cc1cc(=O)oc2cc(OCc3cn(Cc4cc(=O)oc5cc(Cl)ccc45)nn3)ccc12")
0.80
>>> reported_value("O=C(CN1CCN(c2cc3c(cc2F)c(=O)c(C(=O)O)cn3C2CC2)CC1)c1cc2ccc(O)cc2oc1=O")
-0.30
>>> reported_value("C=CC(C)(C)c1c(O)c2c(c3ccc(=O)oc13)OC(C)(C)C=C2")
2.00
>>> reported_value("O=C(CSc1nnc(-c2cc3ccccc3oc2=O)o1)Nc1nc2ccc(Br)cc2s1")
1.10
